Target: T1, Cynomolgus monkey CD98 ECD with C-terminal His-tag (cynomolgus monkey, UniProt P08195 105-529 (human entry))
T1 construct: The entry includes the linker and the polyhistidine tag; also called cyCD98 ECD
T1 chain: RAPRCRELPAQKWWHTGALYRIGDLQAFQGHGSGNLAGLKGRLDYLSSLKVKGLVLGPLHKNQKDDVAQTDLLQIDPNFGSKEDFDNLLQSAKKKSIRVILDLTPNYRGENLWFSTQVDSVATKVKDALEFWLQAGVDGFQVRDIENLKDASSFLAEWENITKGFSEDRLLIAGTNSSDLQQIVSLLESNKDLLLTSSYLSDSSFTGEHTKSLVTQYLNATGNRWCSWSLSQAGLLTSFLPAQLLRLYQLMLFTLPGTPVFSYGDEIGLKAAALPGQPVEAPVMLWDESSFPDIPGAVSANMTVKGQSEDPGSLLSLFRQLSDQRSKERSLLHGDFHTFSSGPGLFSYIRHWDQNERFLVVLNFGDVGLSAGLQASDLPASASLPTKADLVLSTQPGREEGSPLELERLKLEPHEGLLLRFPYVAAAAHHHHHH
Experiment: SPR (Biacore), antibody captured on anti-Fc surface, CD98 ECD in solution
outcome_measure: kon (M⁻¹ s⁻¹)
Dear colleague, please return just the value in M⁻¹ s⁻¹, with no unit written.

A selection of reference data follows.
[[record]]
binder = "huAb15v2 (antibody, V domains shown, Humanized, further engineered clone of chAb15, converted to IgG and expressed as a full-length antibody) VH: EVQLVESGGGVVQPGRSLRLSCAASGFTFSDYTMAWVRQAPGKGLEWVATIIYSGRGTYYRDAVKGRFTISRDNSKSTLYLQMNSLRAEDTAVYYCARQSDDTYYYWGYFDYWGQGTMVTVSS VL: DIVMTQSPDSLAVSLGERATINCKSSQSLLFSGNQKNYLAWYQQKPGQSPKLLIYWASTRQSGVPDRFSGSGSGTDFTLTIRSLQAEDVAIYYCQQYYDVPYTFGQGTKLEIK"
quantitative_readout = 21000

[[record]]
binder = "huAb15v5 (antibody, V domains shown, Humanized, further engineered clone of chAb15, converted to IgG and expressed as a full-length antibody) VH: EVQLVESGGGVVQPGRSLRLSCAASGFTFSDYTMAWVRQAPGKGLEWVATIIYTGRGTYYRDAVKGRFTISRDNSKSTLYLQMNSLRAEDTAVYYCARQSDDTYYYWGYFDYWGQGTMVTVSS VL: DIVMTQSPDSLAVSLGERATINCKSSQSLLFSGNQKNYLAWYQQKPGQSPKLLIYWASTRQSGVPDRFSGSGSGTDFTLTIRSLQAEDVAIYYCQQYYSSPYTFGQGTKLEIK"
quantitative_readout = 17000


Now, please, on to the next binder.
QUERY: Identify measured kon associated with huAb15v1 (antibody, V domains shown, Humanized, further engineered clone of chAb15, converted to IgG and expressed as a full-length antibody) VH: EVQLVESGGGVVQPGRSLRLSCAASGFTFSDYTMAWVRQAPGKGLEWVATIIYSGRGTYYRDAVKGRFTISRDNSKSTLYLQMNSLRAEDTAVYYCARQSDHTYYYWGYFDYWGQGTMVTVSS VL: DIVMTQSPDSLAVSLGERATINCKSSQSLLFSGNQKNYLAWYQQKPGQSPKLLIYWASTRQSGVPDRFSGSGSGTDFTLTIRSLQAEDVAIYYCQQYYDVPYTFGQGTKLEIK
RESULT: 26000

Recorded values, source patent US20200147235A1.
